- protocol: Measurement of LogP values by HPLC on reversed phase columns (EEC directive 79/831 Annex V.A8)
- Format: physicochemical
- applied conditions: method [a]: LC-UV, acidic range, 0.1% formic acid in water and acetonitrile as eluent; Table 2, compounds of formula (XVII)
measurement name: chromatographic logP

> print(dat)
                       mol.smiles      measurement.name  reported.value
 1        O=C(Cn1cncc1F)C1(Cl)CC1  chromatographic logP            0.32
 2     N#Cc1cncn1CC(=O)C1(Cl)CCC1  chromatographic logP            1.86
 3       CC(C)(C)C(=O)Cn1cncc1C#N  chromatographic logP            1.47
 4       O=C(Cn1cncc1Cl)C1(Cl)CC1  chromatographic logP            0.75
 5        O=C(Cn1cncc1I)C1(Cl)CC1  chromatographic logP             0.7
 6      CC(C)(C)CC(=O)Cn1cncc1C#N  chromatographic logP            1.88
 7     N#Cc1cncn1CC(=O)C1(F)CCCC1  chromatographic logP            1.81
 8          N#Cc1cncn1CC(=O)C1CC1  chromatographic logP            0.74
 9      N#Cc1cncn1CC(=O)C1(Cl)CC1  chromatographic logP            1.35
10       CC(C)(F)C(=O)Cn1cncc1C#N  chromatographic logP            1.31
11       N#Cc1cncn1CC(=O)C1(F)CC1  chromatographic logP            1.05
12  COC(=O)c1cncn1CC(=O)C1(Cl)CC1  chromatographic logP             1.2
13          CC(C)C(=O)Cn1cncc1C#N  chromatographic logP            1.14
14           CCCCC(=O)Cn1cncc1C#N  chromatographic logP             1.6
15     N#Cc1cncn1CC(=O)C1(C#N)CC1  chromatographic logP             0.9
16         N#Cc1cncn1CC(=O)C1CCC1  chromatographic logP            1.26
17        N#Cc1cncn1CC(=O)C1CCCC1  chromatographic logP            1.57
18         N#Cc1cncn1CC(=O)CC1CC1  chromatographic logP            1.27

* * *

- Test system: Leptosphaeria nodorum
- protocol: In vitro test for the calculation of the ED50-value with microorganisms, Example Q4: Leptosphaeria nodorum
- Assay type: cell-based
- applied conditions: liquid culture, spore suspension, 4 to 7 days incubation, spectrometric measurement of mycelium growth
Catalogue of Leptosphaeria nodorum ED50 value in ppm values
measurement name: Leptosphaeria nodorum ED50 value in ppm (ppm)

> print(dat)
                                   compound                         measurement.name  unit.descriptor  relation.qualifier  reported.value
1  OC(Cc1ccc(Cl)cc1F)(Cn1cncc1Br)C1(Cl)CC1 (stereo not shown)  Leptosphaeria nodorum ED50 value in ppm              ppm                   =            0.01
2  N#Cc1cncn1CC(O)(Cc1ccc(Cl)cc1F)C1(Cl)CC1 (stereo not shown)  Leptosphaeria nodorum ED50 value in ppm              ppm                   =            0.02
3  OC(Cc1ccc(Cl)cc1F)(Cn1ccnc1)C1(Cl)CC1 (racemic) [reference compound]  Leptosphaeria nodorum ED50 value in ppm              ppm                   =            0.04
4  OC(Cc1ccc(Cl)cc1F)(Cn1cncc1Cl)C1(Cl)CC1 (stereo not shown)  Leptosphaeria nodorum ED50 value in ppm              ppm                   <           0.006
